Reference source for all entries: paper PMC9100884

tested on: T. brucei rhodesiense (STB900); experiment: In vitro antitrypanosomal assay (resazurin); format: cell-based, Trypanosoma brucei rhodesiense; conditions: Trypanosoma brucei, RHODESIENSE; 72 h incubation, resazurin; read-out: IC50 ± S.E.M. Antitrypanosomal against T. brucei rhodesiense
pIC50: −log10 of the molar value.
Please use 1 whenever pIC50 is not below 5, and -1 whenever it is.

[[record]]
compound = "COc1ccc(OC)c(NC(=O)/C=C/C=C/c2ccc3c(c2)OCO3)c1"
category = -1

[[record]]
compound = "O=C(/C=C/C=C/c1ccc2c(c1)OCO2)Nc1ccccc1"
category = -1

[[record]]
compound = "O=C(/C=C/C=C/c1ccc2c(c1)OCO2)N1CCCCC1"
category = -1

[[record]]
compound = "N=C(N)c1ccc(OCCCCCOc2ccc(C(=N)N)cc2)cc1 [Pentamidine, reference compound]"
category = 1

[[record]]
compound = "COc1ccc(NC(=O)/C=C/C=C/c2ccc3c(c2)OCO3)c(OC)c1"
category = -1

